Biological target: human CCR6 (Homo sapiens)
Construct: expressed in transfected cells; host or cells: HEK-293
Sequence (P51684 whole entry): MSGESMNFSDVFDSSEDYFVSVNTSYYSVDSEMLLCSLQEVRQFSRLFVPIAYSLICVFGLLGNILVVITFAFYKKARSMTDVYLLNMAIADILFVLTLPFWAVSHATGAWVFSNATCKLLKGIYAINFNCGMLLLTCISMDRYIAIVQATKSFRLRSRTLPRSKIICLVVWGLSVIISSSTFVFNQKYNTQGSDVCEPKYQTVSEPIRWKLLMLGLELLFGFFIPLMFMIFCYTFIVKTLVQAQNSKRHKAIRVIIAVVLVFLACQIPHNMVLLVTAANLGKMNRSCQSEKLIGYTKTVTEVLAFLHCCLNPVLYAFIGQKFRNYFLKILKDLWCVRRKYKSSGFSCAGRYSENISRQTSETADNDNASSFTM
Assay: FLIPR assay (inhibition of CCL20-induced calcium signal)
Type: cell-based
Conditions: HEK-293 cells expressing human CCR6; mean values where determined several times; read-out: FLIPR IC50
pIC50: −log10 of the molar value.
Measured attribute: pIC50

Molecule	Value observed
CC(C)c1ccc([C@](O)(c2cncc(-c3noc(C(C)(C)N4CCOCC4)n3)c2)C2(C)CN(C)C2)cc1 [Example 346]	7.20
Cc1csc(C2CCN(c3cncc([C@@](O)(c4ccc(C(C)C)cc4)C4(C)CN(C)C4)c3)C2)n1 (stereo partly shown) [Example 231]	7.83
CC(C)c1ccc([C@](O)(c2cncc(-c3noc(C4CCNC(=O)C4)n3)c2)C2(C)CN(C)C2)cc1 (stereo partly shown) [Example 362]	7.05
CCC(CC)c1ccc(C(O)(c2cncc(-c3noc(C4CCN(C(C)=O)CC4)n3)c2)C2(C)CN(C)C2)cc1 (stereo not shown) [Example 563]	7.34

* * *

Target: human CCR6 (Homo sapiens)
Construct: expressed in transfected cells; host or cells: HEK-293
Assay: FLIPR assay (inhibition of CCL20-induced calcium signal)
Assay type: cell-based
Conditions: HEK-293 cells expressing human CCR6; mean values where determined several times; read-out: FLIPR IC50

Compound	IC50
CN1CC(C)([C@](O)(c2ccc(C3(C(F)(F)F)CC3)cc2)c2cncc(N3C[C@@H]4C[C@H]3CO4)c2)C1	128 nM
CC(C)c1ccc([C@](O)(c2cncc(C#CC3CCOCC3)c2)C2(C)CN(C)C2)cc1	33.9 nM
CC(C)c1ccc([C@](O)(c2cncc(-c3nc(CO)no3)c2)C2(C)CN(C)C2)cc1	153 nM
CCCC(=O)N1CCC(c2nc(-c3cncc([C@@](O)(c4ccc(C(C)C)cc4)C4(C)CN(C)C4)c3)no2)CC1	65.9 nM
CC(=O)N1CC(Cc2noc(-c3cncc([C@@](O)(c4ccc(C(C)C)cc4)C4(C)CN(C)C4)c3)n2)C1	297 nM
CC(C)c1ccc([C@](O)(c2cncc(-c3noc(C4CCCOC4)n3)c2)C2(C)CN(C)C2)cc1 (stereo partly shown)	41 nM
CC(=O)NC1(Cc2nc(-c3cncc([C@@](O)(c4ccc(C(C)C)cc4)C4(C)CN(C)C4)c3)no2)CC1	469 nM

* * *

Molecular target: human CCR6 (Homo sapiens)
Construct: expressed in transfected cells; host or cells: HEK-293
Assay: FLIPR assay (inhibition of CCL20-induced calcium signal)
Type: cell-based
Conditions: HEK-293 cells expressing human CCR6; mean values where determined several times; read-out: FLIPR IC50
pIC50: −log10 of the molar value.
compounds and their reported pIC50
Measured attribute: pIC50

Compound	Test target	Value observed
CN1CC(C)(C(O)(c2ccc(OC3CCC3)cc2)c2cncc(N3CCCC3)c2)C1 (stereo not shown)	human CCR6 (Homo sapiens)	7.55
CC(C)c1ccc([C@](O)(c2cnnc(N3CC(C)(C)CC3=O)c2)C2(C)CN(C)C2)cc1	human CCR6 (Homo sapiens)	6.76
CC(C)c1ccc([C@](O)(c2cncc(-c3noc(C(C)C)n3)c2)C2(C)CN(C)C2)cc1	human CCR6 (Homo sapiens)	7.49
CN1CC(C)([C@](O)(c2ccc(C34CC(C3)C4)cc2)c2cncc(-c3noc(C(C)(C)O)n3)c2)C1	human CCR6 (Homo sapiens)	7.24
